Conditions: buffer; pH 7.4; 200.0 µM
Quantity Name: solubility kinetic (µg/mL)
# value in µg/mL; strip the unit string

{"columns": ["Structure Smiles String", "solubility kinetic [µg/mL]"],
 "data": [
  ["O=c1[nH]c2ccc(NS(=O)(=O)c3ccc(F)c(Cl)c3)cc2[nH]1", 7.5],
  ["CCC(CC)C(=O)c1c[nH]c(C(=O)NCc2ccc(F)cc2)c1", 1],
  ["O=[N+]([O-])c1ccc(S(=O)(=O)NCCCc2ccccc2)cc1", 28],
  ["CCOC(=O)c1ccc(C(=S)N2CCCC2)cc1", 37.3],
  ["Nc1nc(Nc2ccccc2)sc1C(=O)c1ccccc1", 4.3],
  ["Cc1cc(C)cc(OCC(=O)Nc2cc(C)on2)c1", 1.5],
  ["Cc1cccc(C)c1N1C(=O)C(Cl)=C(N2CCCC2)C1=O", 31.2],
  ["CC(C)c1ccc(OCc2ccc(C(=O)N(C)C)o2)cc1", 33.2],
  ["CCN(CC)c1ccc(C(=S)NC2CCCCC2)cc1", 2],
  ["O=S(=O)(c1ccc(-c2ccon2)s1)N1CCN(c2ccncc2)CC1", 37.8]
]}

What measured solubility kinetic goes with Cc1ccc(OCC(=O)Nc2cccc3ccccc23)c([N+](=O)[O-])n1 ?
31.5

----------
A collection of compounds and their measured solubility kinetic
Details: buffer; pH 7.4; 200.0 µM
# value in µg/mL; strip the unit string

{"columns": ["Compound", "Unit String", "solubility kinetic"],
 "data": [
  ["COc1cccc(CN(C)C(=O)c2cc(S(=O)(=O)NC3CCCCC3)ccc2C)c1", "µg/mL", 45.3],
  ["CCOc1ccc(S(=O)(=O)/N=C(/Nc2ccc(C(C)=O)cc2)c2ccccc2)cc1", "µg/mL", 18.1]
]}

Moving on to the next compound.
What measured solubility kinetic goes with CN(C1CCCCC1)S(=O)(=O)c1ccc(=S)[nH]c1 ?
22.8

----------
Settings: buffer; pH 7.4; 200.0 µM
Cut-off 20 µg/mL on solubility kinetic, inclusive. At or above means 1 (yes); below means 0 (no).

Would you please look over these solved cases?
{"columns": ["Molecule", "Assigned Category"],
 "data": [
  ["CC(=O)Nc1ccc(NC(=O)CC(C)n2ccnc2)cc1 (stereo not given)", "1 (yes)"],
  ["Cc1ccc2nc(-c3ccc(O)c(O)c3)cn2c1.Cl", "1 (yes)"],
  ["Cc1nnc(NC(=O)CCNC(=O)c2ccccc2Cl)s1", "1 (yes)"],
  ["CC(C)c1ccc(Nc2ccc(C(=O)O)cc2[N+](=O)[O-])cc1", "1 (yes)"],
  ["CCc1cccc(NC(=O)C2CCN(c3ncnc4sc(C)c(C)c34)CC2)c1", "0 (no)"],
  ["O=C1CSCC(=O)N1Cc1ccc(Cl)cc1Cl", "1 (yes)"],
  ["CCCNC(=O)CN1C(=O)NC(CCc2ccccc2)C1=O (stereo not given)", "1 (yes)"],
  ["O=C(Nc1cccc(S(=O)(=O)N2CCCC2)c1)c1cccnc1", "1 (yes)"],
  ["COc1cc(S(=O)(=O)n2cnc3ccccc32)ccc1Br", "1 (yes)"],
  ["C/C(=N/O)c1no[n+]([O-])c1/C(C)=N\\O", "1 (yes)"]
]}

solubility kinetic >= 20 µg/mL for Cc1ccccc1NC(=O)Cn1cc(C(=O)C2CC2)c2ccccc21 ?
0 (no)

solubility kinetic >= 20 µg/mL for c1ccc(CCNC2=NCCS2)cc1 ?
1 (yes)

solubility kinetic >= 20 µg/mL for Cc1ccc(CCS(=O)(=O)c2ccc(C(C)(C)C)cc2)cn1 ?
1 (yes)

solubility kinetic >= 20 µg/mL for Cc1cc(Sc2ccc([N+](=O)[O-])cn2)ccc1Br ?
0 (no)

----------
A collection of molecules and their measured solubility kinetic
Conditions: buffer; pH 7.4; 200.0 µM

{"columns": ["Molecule", "Value Measured"],
 "data": [
  ["O=C(Nc1cccc(Cl)c1)NC1CC2CCC1C2 (stereo not given)", "1.1 µg/mL"],
  ["O=C(O)C1C2CCC(C2)C1C(=O)Nc1ccc(Cl)c(Cl)c1 (stereo not given)", "< 0.7 µg/mL"],
  ["CC(C)c1ccc(OCC(=O)Nc2ccc3oc(=O)ccc3c2)cc1", "< 0.7 µg/mL"]
]}

What measured solubility kinetic goes with Cc1cc(Cl)c2cc3ccccc3cc2n1 ?
0.9 µg/mL

What measured solubility kinetic goes with O=C(Cc1ccc(Cl)cc1)N1CCOCC1 ?
> 36 µg/mL

What measured solubility kinetic goes with O=C(CCCc1ccccc1)Nc1cccc([N+](=O)[O-])c1 ?
26.4 µg/mL

----------
Settings: buffer; pH 7.4; 200.0 µM
Cut-off 6 µg/mL on solubility kinetic, inclusive. At or above means label 1; below means label 0.

Would you please look over these solved cases?
{"columns": ["Molecule", "Assigned Category"],
 "data": [
  ["Cc1ccc(C2CCN(C(=S)Nc3cccc(Cl)c3)C2)cc1 (configuration not stated)", "label 0"],
  ["Cc1cc(N/C=C/C(=O)c2ccccc2)ccc1Br", "label 0"],
  ["COC(=O)c1sc(SC)c(S(=O)(=O)C(C)C)c1N", "label 0"],
  ["O=C(CCCNC(=O)c1ccc(Cl)cc1)Nc1cccc(F)c1", "label 0"],
  ["CC(=O)C1=C(O)C(=O)N(C)C1c1ccccc1[N+](=O)[O-] (configuration not stated)", "label 1"],
  ["CN1CCCC(C(O)(c2ccccc2)c2ccccc2)C1 (configuration not stated)", "label 1"]
]}

solubility kinetic >= 6 µg/mL for c1ccc(CN2CCC(Nc3ncnc4sccc34)CC2)cc1 ?
label 1

solubility kinetic >= 6 µg/mL for C/C(=C\c1ccc(Br)cc1)C(=O)c1c(C)cc(C)[nH]c1=O ?
label 1

solubility kinetic >= 6 µg/mL for CCCCCCNC(=O)Cc1ccc(Br)cc1 ?
label 0

solubility kinetic >= 6 µg/mL for Cn1c(=O)n(CC(=O)[O-])c(=O)c2c1nc1n2CCS1 ?
label 1

solubility kinetic >= 6 µg/mL for C#CCSc1nc2sc3c(c2c(=O)n1C)CCC3 ?
label 0

solubility kinetic >= 6 µg/mL for O=c1c2ccccc2nc2n1C(CSc1ccccc1)CS2 (configuration not stated) ?
label 1

----------
Conditions: buffer; pH 7.4; 200.0 µM
Cut-off 30 µg/mL on solubility kinetic, inclusive. At or above means Yes; below means No.

{"columns": ["Compound", "Assigned Category"],
 "data": [
  ["CCN(CC)C(=O)Cc1c(OC)ccc2cc(Br)ccc12", "No"],
  ["O=[N+]([O-])c1ccc(OCC2CC(c3ccccc3)=NO2)cc1 (stereo not given)", "No"],
  ["CCC(C)NC(=O)C1c2ccccc2C(=O)N1Cc1ccc(F)cc1 (stereo not given)", "Yes"],
  ["COc1ccc(-c2nc(NC(C)=O)sc2-c2ccccc2)cc1", "No"],
  ["COc1ccc(C(=O)CCC(C)(C)[N+](=O)[O-])cc1", "Yes"]
]}

solubility kinetic >= 30 µg/mL for CC(C)(C)NC(=O)COc1ccc(CNCc2ccccn2)cc1.Cl ?
Yes

solubility kinetic >= 30 µg/mL for NCC(c1ccccc1Cl)c1c[nH]c2ccccc12 (stereo not given) ?
Yes

solubility kinetic >= 30 µg/mL for CN(CCOc1ccccc1)CC(O)COc1ccccc1 (stereo not given) ?
No

solubility kinetic >= 30 µg/mL for CCN(CC)CC(O)Cn1c(-c2cccc(Cl)c2)nc2cc(C)c(C)cc21 (stereo not given) ?
Yes

solubility kinetic >= 30 µg/mL for O=S(=O)(NC1CCCC1)c1cc(F)ccc1F ?
Yes

solubility kinetic >= 30 µg/mL for Cc1cccc(C(=O)Nc2cccnc2Cl)c1 ?
Yes

solubility kinetic >= 30 µg/mL for CCOc1cc(C2C(C#N)=C(N)Oc3cc(N)ccc32)ccc1O (stereo not given) ?
Yes

solubility kinetic >= 30 µg/mL for COc1cc(NC(=O)c2ccccc2Cl)c2ncccc2c1 ?
No

solubility kinetic >= 30 µg/mL for COc1cc2nc(NC(=O)c3ccco3)sc(=O)c2cc1OC ?
No

solubility kinetic >= 30 µg/mL for Oc1ccccc1-c1nc2ccccc2nc1-c1ccccc1 ?
No

----------
Settings: buffer; pH 7.4; 200.0 µM
Categorize each record by its solubility kinetic using L: < 2 µg/mL; M: ≥ 2 µg/mL and < 10 µg/mL; H: ≥ 10 µg/mL

Sort Cc1cc(C)cc(C(=O)NC2CC(C)(C)NC(C)(C)C2)c1 into one of the categories.
H

Sort CCc1ccc(N2CN(Cc3ccco3)CNC2=S)cc1 into one of the categories.
H

Sort Cc1ccc(NS(=O)(=O)c2ccc3c(c2)n(C)c(=O)n3C)cc1C into one of the categories.
L

Sort COC(=O)c1cc(S(=O)(=O)N(C)C2CCCCC2)c[nH]1 into one of the categories.
H

Sort COS(=O)(=O)[O-].Cn1c(Cc2ccccc2)[n+](C)c2ccccc21 into one of the categories.
H

Sort CC(C)NC(NC(=O)/C=C/c1ccccc1)C(Cl)(Cl)Cl (stereo not given) into one of the categories.
H

Sort CCN(CC)C(=O)N1CCN(S(=O)(=O)c2ccccc2)CC1 into one of the categories.
H
